CAR-J2 EC50 [ng/mL] (PGLALA-CAR-J activation, L363 target cells) for assorted binders
test system: human GPRC5D (human, UniProt Q9NZD1 1-345)
Sequence (Q9NZD1 whole entry): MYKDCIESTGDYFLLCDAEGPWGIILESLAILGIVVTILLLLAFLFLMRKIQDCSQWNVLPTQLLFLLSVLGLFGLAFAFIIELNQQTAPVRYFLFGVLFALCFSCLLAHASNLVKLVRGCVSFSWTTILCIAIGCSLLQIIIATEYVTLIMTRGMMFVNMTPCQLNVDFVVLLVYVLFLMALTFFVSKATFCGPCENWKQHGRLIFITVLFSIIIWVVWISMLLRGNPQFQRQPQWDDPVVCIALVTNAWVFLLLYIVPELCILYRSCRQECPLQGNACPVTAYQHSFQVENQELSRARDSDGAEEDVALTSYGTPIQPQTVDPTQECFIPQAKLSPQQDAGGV
method summary: cell-based or functional assay
readout name: CAR-J2 EC50 [ng/mL] (PGLALA-CAR-J activation, L363 target cells)

{"binder": "5F11_P1AE5745 (antibody, V domains shown, Humanized 5F11 IgG; PGLALA Fc implied by the CAR-J assay; also called 5F11_VH1c + 5F11_VL1b) VH: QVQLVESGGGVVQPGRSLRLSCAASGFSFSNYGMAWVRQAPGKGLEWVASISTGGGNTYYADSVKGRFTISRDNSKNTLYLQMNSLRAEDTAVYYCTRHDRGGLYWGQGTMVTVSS VL: DIVMTQSPLSLPVTPGEPASISCRSSKSLLHSNGITYVYWYLQKPGKSPQVLIYRMSNLASGVPDRFSGSGSGTDFTLKISRVEAEDVGVYHCGQLLENPYTFGQGTKLEIK", "meas value": "1.62 ng/mL"}
{"binder": "P1AE5737 (antibody, V domains shown, Humanized 5F11 IgG; PGLALA Fc implied by the CAR-J assay; also called 5F11_VH1a + 5F11_VL2b) VH: QVQLVESGGGVVQPGRSLRLSCAASGFSFSNYGMAWVRQAPGKGLEWVASISTGGGNTYYRDSVKGRFTISRDNSKNTLYLQMNSLRAEDTAVYYCTRHDRGGLYWGQGTMVTVSS VL: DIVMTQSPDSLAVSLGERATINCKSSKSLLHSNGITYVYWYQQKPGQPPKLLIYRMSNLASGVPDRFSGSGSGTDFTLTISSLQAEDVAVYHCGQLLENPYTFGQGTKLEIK", "meas value": "2.95 ng/mL"}
{"binder": "5F11-IgG (antibody, V domains shown, Rat-derived variable domains, tested as IgG; also called P1AE5733 (parental); 5F11_parental) VH: EVQLVESGGGLVQPGRSLKLSCAASGFSFSNYGMAWVRQAATKGLEWVASISTGGGNTYYRDSVKGRFIVSRDNAKNTQYLQMDSLRSEDTATYYCTRHDRGGLYWGQGVMVTVSS VL: DIVMTQAPLSVSVTPGESASISCRSSKSLLHSNGITYVYWYFQKPGKSPQVLIYRMSNLASGVPDRFSGSGSETDFTLKISRVEAEDVGIYHCGQLLENPYTFGAGTELELK", "meas value": "2.65 ng/mL"}
{"binder": "5F11_P1AE5741 (antibody, V domains shown, Humanized 5F11 IgG; PGLALA Fc implied by the CAR-J assay; also called 5F11_VH1b + 5F11_VL2a) VH: EVQLVESGGGVVQPGRSLRLSCAASGFSFSNYGMAWVRQAPGKGLEWVASISTGGGNTYYRDSVKGRFTISRDNAKNTLYLQMNSLRAEDTAVYYCTRHDRGGLYWGQGTMVTVSS VL: DIVMTQSPLSLPVTPGEPASISCRSSKSLLHSNGITYVYWYLQKPGQSPQLLIYRMSNRASGVPDRFSGSGSGTDFTLKISRVEAEDVGVYHCGQLLENPYTFGQGTKLEIK", "meas value": "1.4 ng/mL"}
{"binder": "P1AE5749 (antibody, V domains shown, Humanized 5F11 IgG; PGLALA Fc implied by the CAR-J assay; also called 5F11_VH1c + 5F11_VL2c) VH: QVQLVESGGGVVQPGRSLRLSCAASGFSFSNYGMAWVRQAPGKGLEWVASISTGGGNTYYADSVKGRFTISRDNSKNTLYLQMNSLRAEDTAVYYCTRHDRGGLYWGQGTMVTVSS VL: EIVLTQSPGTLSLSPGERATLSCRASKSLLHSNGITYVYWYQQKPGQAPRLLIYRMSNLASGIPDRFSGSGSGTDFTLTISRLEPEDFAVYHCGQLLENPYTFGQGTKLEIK", "meas value": "82.6 ng/mL"}
